- test.details: Cytotoxicity against human DU145 cells assessed as viable cells after 24 hrs by MTT assay
- Format: functional, cell-based
- experimental.parameters: DU-145, 24 h
pIC50: −log10 of the molar value.
recorded.metric: pIC50

# smi, pIC50
data = [
    ("COc1c(Br)cc(C/C(=N\\O)C(=O)NCCNCCNC(=O)/C(Cc2cc(Br)c(OC)c(Br)c2)=N/O)cc1Br", "< 4.00"),
]

Q) Output pIC50 of COc1c(Br)cc(C/C(=N\O)C(=O)NCCCNCCCCNCCCNC(=O)/C(Cc2cc(Br)c(OC)c(Br)c2)=N/O)cc1Br
A) < 4.00

Q) Output pIC50 of CO/N=C(\Cc1cc(Br)c(OC)c(Br)c1)C(=O)NCCNCCNC(=O)/C(Cc1cc(Br)c(OC)c(Br)c1)=N/OC
A) 4.59

Q) Output pIC50 of CO/N=C(\Cc1cc(Br)c(OC)c(Br)c1)C(=O)NCCCCCNC(=O)/C(Cc1cc(Br)c(OC)c(Br)c1)=N/OC
A) < 4.00

Origin of values: ChEMBL document CHEMBL3774387
